- experimental_system: urease in intact H. pylori J99 (Helicobacter pylori, UniProt P69997)
- Construct: In the intact H. pylori J99 cells, the urease susceptibility profile was similar to that of E. coli (pGEM::ureOP); endogenous in cells
- Sequence (Q9ZMZ4 whole entry): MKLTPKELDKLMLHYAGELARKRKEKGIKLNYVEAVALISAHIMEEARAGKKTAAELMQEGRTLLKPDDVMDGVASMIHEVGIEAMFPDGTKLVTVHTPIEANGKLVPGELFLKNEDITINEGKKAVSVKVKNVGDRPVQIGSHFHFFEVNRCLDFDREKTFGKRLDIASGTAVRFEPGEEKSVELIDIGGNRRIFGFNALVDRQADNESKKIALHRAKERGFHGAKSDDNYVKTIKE
- Sequence (P69997 whole entry): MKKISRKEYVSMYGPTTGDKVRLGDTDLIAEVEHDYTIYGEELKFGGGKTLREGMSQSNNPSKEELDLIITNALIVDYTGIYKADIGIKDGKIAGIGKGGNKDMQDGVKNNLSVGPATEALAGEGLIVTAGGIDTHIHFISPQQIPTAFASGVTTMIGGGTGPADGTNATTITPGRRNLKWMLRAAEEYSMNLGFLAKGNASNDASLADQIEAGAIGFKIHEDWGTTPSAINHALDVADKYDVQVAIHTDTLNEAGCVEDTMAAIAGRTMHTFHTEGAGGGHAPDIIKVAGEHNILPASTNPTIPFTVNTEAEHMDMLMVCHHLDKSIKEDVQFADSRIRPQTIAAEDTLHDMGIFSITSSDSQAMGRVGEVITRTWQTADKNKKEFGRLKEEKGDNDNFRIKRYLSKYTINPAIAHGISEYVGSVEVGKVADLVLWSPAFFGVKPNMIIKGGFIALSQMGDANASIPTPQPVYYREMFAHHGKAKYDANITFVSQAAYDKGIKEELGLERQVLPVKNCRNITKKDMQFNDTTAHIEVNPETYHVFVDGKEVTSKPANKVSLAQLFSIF
- assay_text: Urease inhibition in whole cells of H. pylori J99
- Format: cell-based
- cond: cells grown with urea; without preincubation; read-out: IC500
Examples of molecules with documented IC50 follow.

Task: For NCP(=O)(O)CN , what is its reported IC50?
Result: > 2000 µM

Task: For CCN(CC)CP(=O)(O)CN , what is its reported IC50?
Result: > 2000 µM

Okay, next one:
Task: For CN(Cc1ccccc1)CP(=O)(O)CN , what is its reported IC50?
Result: > 2000 µM
